Assay: Growth inhibition of human HeLa cells after 72 hrs by MTT assay
Format: functional, cell-based
Measured IC50 by item
Kindly answer with a numeric value in µM, unit omitted.

Known results for compounds:
* COc1cc(NC(C)CCCNC(=O)NNC(=O)Nc2ccc(Br)cc2)c2ncccc2c1 (stereo unspecified) | 101
* COc1cc(NC(C)CCCNC(=O)Nc2ccc(C(F)(F)F)cc2)c2ncccc2c1 (stereo unspecified) | 8.3
* COc1cc(NC(C)CCCNC(=O)Nc2cc(C(F)(F)F)cc(C(F)(F)F)c2)c2ncccc2c1 (stereo unspecified) | 3.1
* COc1cc(NC(C)CCCNC(=O)NNC(=O)Nc2cccc(Cl)c2)c2ncccc2c1 (stereo unspecified) | 44
* COc1cc(NC(C)CCCNC(=O)Nc2ccc(O)cc2)c2ncccc2c1 (stereo unspecified) | 70

Okay, now this compound:
Which value of IC50 has been reported for COc1cc(NC(C)CCCNC(=O)Nc2ccc(Br)cc2)c2ncccc2c1 (stereo unspecified) in the records?
20

----------
Assay: Growth inhibition of human HeLa cells after 72 hrs by MTT assay
Assay type: functional, cell-based
METRIC: log10 IC50 (log10 of the value in µM)
Remember, log10 of IC50, in µM.

Known results for compounds:
- COc1cc(NC(C)CCCNC(=O)NNC(=O)Nc2cccc(C(F)(F)F)c2)c2ncccc2c1 (stereo not given): 0.69
- COc1cc(NC(C)CCCNC(=O)NNC(=O)Nc2ccc(O)cc2)c2ncccc2c1 (stereo not given): 1.93
- COc1cc(NC(C)CCCNC(=O)NNC(=O)Nc2cccc(O)c2)c2ncccc2c1 (stereo not given): 2.26
- COc1cc(NC(C)CCCNC(=O)Nc2cccc(O)c2)c2ncccc2c1 (stereo not given): 1.68
- COc1cc(NC(C)CCCNC(=O)Nc2ccc(F)cc2)c2ncccc2c1 (stereo not given): 1.30

Which value of log10 IC50 has been reported for COc1cc(NC(C)CCCNC(=O)Nc2cccc(Cl)c2)c2ncccc2c1 (stereo not given) in the records?
1.23

Which value of log10 IC50 has been reported for COc1cc(NC(C)CCCNC(=O)Nc2ccc(Cl)cc2)c2ncccc2c1 (stereo not given) in the records?
1.26

Which value of log10 IC50 has been reported for COc1cc(NC(C)CCCNC(=O)NNC(=O)Nc2ccc(C(F)(F)F)cc2)c2ncccc2c1 (stereo not given) in the records?
1.18
